Each recorded value in this set is attributed to ChEMBL document CHEMBL4017497.

- assay_system: Adenosine receptor A3 (Homo sapiens)
- run_description: Displacement of [3H]PSB-11 from human adenosine A3 receptor expressed on CHO cell membranes assessed as kinetic rate index at IC50 measured after 240 mins by scintillation spectrometry
reported_endpoint: Activity index

CCCCCn1c(=O)c2c(nc3cc(OC)ccn32)n(Cc2ccccc2)c1=O : 1.11

(1) C=CCCn1c(=O)c2c(nc3cc(OC)ccn32)n(Cc2ccccc2)c1=O
(2) COc1ccn2c(c1)nc1c2c(=O)[nH]c(=O)n1Cc1ccccc1
(3) CCc1ccc(Cn2c(=O)n(CC3CC3)c(=O)c3c2nc2cc(OC)ccn23)cc1
(4) CCCCCCn1c(=O)c2c(nc3cc(OC)ccn32)n(Cc2ccccc2)c1=O
Prompt line: List these items ordered by Activity index, big to small. Give your ranking as a list of the labels in the requested order.
Response line: 4, 1, 3, 2
(4: 2.18, 1: 1.23, 3: 0.81, 2: 0.38)

* * *

- assay_system: Adenosine receptor A3 (Homo sapiens)
- run_description: Displacement of [3H]PSB-11 from human adenosine A3 receptor expressed on CHO cell membranes after 2 hrs by scintillation spectrometry
reported_endpoint: inhibition

CCCCCn1c(=O)c2c(nc3cc(OC)ccn32)n(Cc2ccccc2)c1=O : Dose-dependent effect
COc1ccn2c(c1)nc1c2c(=O)n(CCC(C)(C)C)c(=O)n1Cc1ccccc1 : Dose-dependent effect
COc1ccn2c(c1)nc1c2c(=O)n(CC2CC2)c(=O)n1Cc1cccc(C)c1 : Dose-dependent effect
CCCCn1c(=O)c2c(nc3cc(OC)ccn32)n(Cc2ccccc2)c1=O : Dose-dependent effect
COc1ccn2c(c1)nc1c2c(=O)n(CC2CC2)c(=O)n1Cc1ccc(Cl)cc1 : Dose-dependent effect
CCn1c(=O)c2c(nc3cc(OC)ccn32)n(Cc2ccccc2)c1=O : Dose-dependent effect

Prompt line: Could you share which inhibition value was measured for COc1ccn2c(c1)nc1c2c(=O)n(CC(C)(C)C)c(=O)n1Cc1ccccc1 ?
Response line: Dose-dependent effect

Prompt line: I am curious: what inhibition value has been reported for COc1ccn2c(c1)nc1c2c(=O)n(C[Si](C)(C)C)c(=O)n1Cc1ccccc1 ?
Response line: Dose-dependent effect

Prompt line: Which inhibition reading was recorded for the compound COCCn1c(=O)c2c(nc3cc(OC)ccn32)n(Cc2ccccc2)c1=O ?
Response line: Dose-dependent effect

Prompt line: Returns the measured inhibition for the input compound. Input: CCCn1c(=O)c2c(nc3cc(OC)ccn32)n(Cc2ccccc2)c1=O
Response line: Dose-dependent effect

* * *

- assay_system: Adenosine receptor A3 (Homo sapiens)
- run_description: Displacement of [3H]PSB-11 from human adenosine A3 receptor expressed on CHO cell membranes assessed as kinetic rate index at IC50 measured after 240 mins by scintillation spectrometry
reported_endpoint: Activity index

Known Activity index results, listed for orientation:
COc1ccn2c(c1)nc1c2c(=O)n(CC2CC2)c(=O)n1Cc1cccc(C)c1 : 1.18
COc1cccc(Cn2c(=O)n(CC3CC3)c(=O)c3c2nc2cc(OC)ccn23)c1 : 2.24
C=CCn1c(=O)c2c(nc3cc(OC)ccn32)n(Cc2ccccc2)c1=O : 0.72
COc1ccn2c(c1)nc1c2c(=O)n(CC(C)(C)C)c(=O)n1Cc1ccccc1 : 1.73

(a) COc1ccn2c(c1)nc1c2c(=O)n(CCCO)c(=O)n1Cc1ccccc1
(b) COc1ccn2c(c1)nc1c2c(=O)n(CC2CC2)c(=O)n1Cc1ccc(Cl)c(Cl)c1
Prompt line: Between a and b , which one shows the larger Activity index value? Answer = label.
Response line: b

(1) COc1ccn2c(c1)nc1c2c(=O)n(CC2CCC2)c(=O)n1Cc1ccccc1
(2) CCCn1c(=O)c2c(nc3cc(OC)ccn32)n(Cc2ccccc2)c1=O
(3) COc1ccn2c(c1)nc1c2c(=O)n(C)c(=O)n1Cc1ccccc1
(4) COc1ccn2c(c1)nc1c2c(=O)n(CC2CC2)c(=O)n1Cc1ccccc1
Prompt line: Order each entry by recorded Activity index, climbing from the minimum. When ranking, write the labels in the order the request describes.
Response line: 3, 2, 1, 4
(3: 0.54, 2: 0.99, 1: 1.48, 4: 2.68)

(A) COc1ccn2c(c1)nc1c2c(=O)n(CC2CC2)c(=O)n1CCc1ccccc1
(B) COc1ccn2c(c1)nc1c2c(=O)n(CC(C)C)c(=O)n1Cc1ccccc1
(C) CCCCCCCn1c(=O)c2c(nc3cc(OC)ccn32)n(Cc2ccccc2)c1=O
(D) COCCn1c(=O)c2c(nc3cc(OC)ccn32)n(Cc2ccccc2)c1=O
Prompt line: Order these by Activity index, descending, and give the full ranking. Write the labels, ordered according to the request.
Response line: C, B, A, D
(C: 4.06, B: 1.64, A: 1.09, D: 0.7)

(a) COc1ccn2c(c1)nc1c2c(=O)n(C[Si](C)(C)C)c(=O)n1Cc1ccccc1
(b) COc1ccn2c(c1)nc1c2c(=O)n(CC2CC2)c(=O)n1Cc1cccc(Cl)c1
Prompt line: a or b : whose Activity index is greater? Your answer should be the label attached to the chosen record.
Response line: a
